Cited source for all entries: PubChem BioAssay (NCATS)

biological target: Glutathione peroxidase 1 (Homo sapiens); assay: Primary qHTS Assay for Inhibitors of Recombinant Selenoprotein Glutathione Peroxidase 1 (GPX1) (AID 1845191); conditions: recombinant GPX1, GR-coupled NADPH fluorescence, 15 min; series mostly up to 48.8 µM; note: nearly all actives have a fitted effect of over 65% in size
Records with an inconclusive call do not appear. Activity calls are given as the source filed them. Calls come from the whole dose curve; as a rule, active = well fitted inhibition curve with a large enough effect; inconclusive = small, poorly fitted or top-dose-only effect; inactive = flat fitted curve, though single readings scatter.
Labels: true (active), false (inactive)

Smiles data: O=C(NOC[C@H](O)CO)c1ccc(F)c(F)c1Nc1ccc(I)cc1F
Assigned category: false
//
Smiles data: CN(C(=O)c1ccc(F)cc1C(F)(F)F)C1CCN(c2nnc(-c3ccnn3C)c3ccccc23)CC1
Assigned category: false
//
Smiles data: N#CC[C@H](C1CCCC1)n1cc(-c2ncnc3[nH]ccc23)cn1
Assigned category: true
//
Smiles data: CCOc1ccn(-c2ccc(F)cc2)c(=O)c1C(=O)Nc1ccc(Oc2ccnc(N)c2Cl)c(F)c1
Assigned category: false
//
Smiles data: Nc1ncnc2nc(-c3ccc(N4CCOCC4)nc3)cc(-c3cccc(Br)c3)c12
Assigned category: false

====

assay: Quantitative High-Throughput drug screen in 47 multiple myeloma cell lines against the NCATS MIPE library collection: NCIH929_DSMZ cell viability assay (AID 1918978); details: NCI-H929 myeloma viability, CellTiter-Glo ATP, 48 h; series mostly up to 45.8 µM; note: nearly all actives have a fitted effect of over 35% in size
Records with an inconclusive call do not appear. The source made the active and inactive calls. Calls follow the shape of the dose curve; as a rule, active = well fitted cell-killing curve with a large enough effect; inconclusive = small, poorly fitted or top-dose-only effect; inactive = no such curve, though single readings can be large or run the other way.
Labels: active, inactive

Compound: COc1c(Cl)cc2c([nH]c3cnccc32)c1NC(=O)c1cccnc1C
Assigned category: active

Compound: O=C(NOC[C@H](O)CO)c1ccc(F)c(F)c1Nc1ccc(I)cc1F
Assigned category: active

Compound: CCn1cc(C(=O)O)c(=O)c2cc(F)c(N3CCNC(C)C3)c(F)c21 (centres undefined)
Assigned category: inactive

Compound: O=c1n(CCCN2CCN(c3cccc(Cl)c3)CC2)nc2ccccn12
Assigned category: inactive

Compound: NC(=O)c1ccc(-c2nc(-c3ccc4c(c3)OCCO4)c(-c3ccccn3)[nH]2)cc1
Assigned category: inactive

Compound: Cc1[nH]c(=O)c(C#N)cc1-c1ccc2nccn2c1
Assigned category: inactive

Compound: CC(=O)Oc1ccccc1C(=O)O
Assigned category: active

Compound: Cc1cnc(Nc2ccc(OCCN3CCCC3)cc2)nc1Nc1cccc(S(=O)(=O)NC(C)(C)C)c1
Assigned category: inactive

Compound: CC(C)NCC(O)COc1ccc(COCCOC(C)C)cc1 (centres undefined)
Assigned category: inactive

Compound: NC(N)=NC(=O)c1nc(Cl)c(N)nc1N
Assigned category: active

Compound: N#CC[C@H](C1CCCC1)n1cc(-c2ncnc3[nH]ccc23)cn1
Assigned category: inactive

Compound: CCCC(CCC)C(=O)O
Assigned category: inactive

Compound: CN1CCN(CCCN2c3ccccc3Sc3ccc(C(F)(F)F)cc32)CC1
Assigned category: active

Compound: O=C1CCCC2=C1C(c1[nH]ncc1Cl)N=C(Nc1nc3ccccc3o1)N2 (centres undefined)
Assigned category: active

Compound: CN(C)c1ccc(Nc2nc(N)n(C(=O)c3c(F)cccc3F)n2)cc1
Assigned category: active

Compound: Nc1nccc(-c2ccc3noc(-c4ccc(Cl)cc4)c3c2)n1
Assigned category: active

Compound: O=c1[nH]c(-c2ccc(C(F)(F)F)cc2)nc2c1CSCC2
Assigned category: active

Compound: Clc1cccc(Cl)c1NC1=NCCN1
Assigned category: inactive

Compound: Oc1cccc(-c2nc(N3CCOCC3)c3oc4ncccc4c3n2)c1
Assigned category: active

Compound: CC(=O)NC(C)c1ccc(Oc2ccc(OC(C)C)cc2)cc1 (centres undefined)
Assigned category: active

Compound: COc1ccc2c3n(c(=NC(=O)c4cccnc4)nc2c1OC)CCN3
Assigned category: active

Compound: NCCCC(N)(C(=O)O)C(F)F (centres undefined)
Assigned category: active

Compound: CCCn1c(=O)c2[nH]c(C34CC5CC3C[C@@H](C5)C4)nc2n(CCC)c1=O
Assigned category: inactive

Compound: CC(C)(C)NCC(O)c1ccc(O)c(CO)c1 (centres undefined)
Assigned category: inactive

====

test: qHTS of pediatric cancer cell lines to identify multiple opportunities for drug repurposing: Primary screen for MG 63 (6-TG R) cells (AID 1347105); settings: MG 63 (6-TG R) viability, CellTiter-Glo, 48 h; series mostly up to 46 µM; note: nearly all actives have a fitted effect of over 50% in size
Results filed as inconclusive are left out. The source made the active and inactive calls. Calls follow the shape of the dose curve; as a rule, active = well fitted cell-killing curve with a large enough effect; inconclusive = small, poorly fitted or top-dose-only effect; inactive = no such curve, though single readings can be large or run the other way.
Labels: active, inactive

Compound: CC1(C)SCCN(S(=O)(=O)c2ccc(OCC#CCO)cc2)[C@@H]1C(=O)NO
Assigned category: inactive

Compound: Oc1cccc(-c2nc(N3CCOCC3)c3oc4ncccc4c3n2)c1
Assigned category: active

Compound: NC(=O)c1ccc(I)c([N+](=O)[O-])c1
Assigned category: inactive

Compound: NC(=O)C1CCCc2c1[nH]c1ccc(Cl)cc21 (configuration not stated)
Assigned category: inactive

Compound: Clc1cccc(Cl)c1NC1=NCCN1
Assigned category: inactive

Compound: CC(C)(C)NCC(O)c1ccc(O)c(CO)c1 (configuration not stated)
Assigned category: inactive

Compound: OCCC#Cc1nc(-c2ccc(F)cc2)c(-c2ccncc2)n1CCCc1ccccc1
Assigned category: active

Compound: CS(=O)(=O)c1cccc(CNc2nc(Nc3ccc4c(c3)CCC(=O)N4)ncc2C(F)(F)F)c1
Assigned category: active

Compound: COCC(=O)NCC=Cc1ccc2ncnc(Nc3ccc(Oc4ccc(C)nc4)c(C)c3)c2c1
Assigned category: inactive

Compound: NC(=O)c1cnccn1
Assigned category: inactive

Compound: NS(=O)(=O)c1cc2c(cc1Cl)NC=NS2(=O)=O
Assigned category: inactive

Compound: NCCCC(N)(C(=O)O)C(F)F (configuration not stated)
Assigned category: inactive

Compound: COc1ccc(COc2cc3oc(=O)c4cc(C(C)O)ccc4c3cc2OC)cc1 (configuration not stated)
Assigned category: active

Compound: Fc1ccc(Cl)cc1-c1nc(Nc2ccncc2)c2nccnc2n1
Assigned category: inactive

Compound: O=C(C1CC1)N1CC[C@@H](Cn2c(-c3ccc(-c4ccc5occc5c4)cc3)nc3cnccc32)C1
Assigned category: inactive

Compound: Nc1ncnc2nc(-c3ccc(N4CCOCC4)nc3)cc(-c3cccc(Br)c3)c12
Assigned category: inactive

Compound: CCCc1nn(C)c2c(=O)[nH]c(-c3cc(S(=O)(=O)N4CCN(C)CC4)ccc3OCC)nc12
Assigned category: inactive

Compound: CCN(CC)CCCC(C)Nc1ccnc2cc(Cl)ccc12 (configuration not stated)
Assigned category: active

Compound: Cc1oncc1C(=O)Nc1ccc(C(F)(F)F)cc1
Assigned category: inactive

Compound: Nc1nc2ccc(OC(F)(F)F)cc2s1
Assigned category: inactive

Compound: CCN(c1ccccc1)c1cc(NC)[n+](C)c(C)n1
Assigned category: inactive

Compound: Cc1cc(C=c2sc3nc4ccccc4n3c2=O)c(C)n1-c1ccccc1
Assigned category: inactive

Compound: Cn1cnc([N+](=O)[O-])c1Sc1ncnc2nc[nH]c12
Assigned category: inactive

Compound: Cc1ccnc(NS(=O)(=O)c2ccc(NC(=O)Nc3ccc(S(=O)(=O)Nc4nccc(C)n4)cc3)cc2)n1
Assigned category: inactive

Compound: COc1ccc(-c2c(-c3ccc(O)cc3O)n[nH]c2C)cc1
Assigned category: inactive

Compound: COc1ccccc1-c1cccc(-c2c(O)c3cc(C#N)c(Cl)cc3[nH]c2=O)c1
Assigned category: inactive

Compound: CCOc1cc(N2CCC(O)CC2)ccc1Nc1ncc2c(n1)N(C)c1ccccc1C(=O)N2C
Assigned category: active

Compound: O=c1n(CCCN2CCN(c3cccc(Cl)c3)CC2)nc2ccccn12
Assigned category: inactive

Compound: C#Cc1cccc(Nc2ncnc3cc(OCCOC)c(OCCOC)cc23)c1
Assigned category: inactive

Compound: O=C(Nc1cccnc1)N1CCC(Cc2cccc(Oc3ccc(C(F)(F)F)cn3)c2)CC1
Assigned category: inactive

Compound: COc1ccc(-c2ccc3c(N4CCOC[C@H]4C)nc(N4CCOC[C@H]4C)nc3n2)cc1CO
Assigned category: active

Compound: O=S(=O)(N=Cc1c(O)ccc2ccccc12)c1cccs1
Assigned category: active

====

assay: qHTS of pediatric cancer cell lines to identify multiple opportunities for drug repurposing: Primary screen for LAN-5 cells (AID 1347100); settings: LAN-5 neuroblastoma viability, CellTiter-Glo luminescence, 48 h; series mostly up to 46 µM
Records with an inconclusive call do not appear. The source made the active and inactive calls. The call rests on the fitted dose curve; in most records, active means well fitted cell-killing curve with a large enough effect; inconclusive means small, poorly fitted or top-dose-only effect; inactive means no such curve, though single readings can be large or run the other way.
Labels: active, inactive

Compound: NC(=O)C1CCCc2c1[nH]c1ccc(Cl)cc21 (stereo not drawn)
Assigned category: inactive
--
Compound: O=c1[nH]c(-c2ccc(C(F)(F)F)cc2)nc2c1CSCC2
Assigned category: inactive
--
Compound: Cc1cccc(-c2nn(C(=S)Nc3ccccc3)cc2-c2ccnc3ccccc23)n1
Assigned category: inactive
--
Compound: NCCCC(N)(C(=O)O)C(F)F (stereo not drawn)
Assigned category: inactive
--
Compound: Cc1oncc1C(=O)Nc1ccc(C(F)(F)F)cc1
Assigned category: inactive
--
Compound: Cc1cc2c(F)c(Oc3ncnn4cc(OC[C@@H](C)O)c(C)c34)ccc2[nH]1
Assigned category: active
--
Compound: CCn1c(-c2nonc2N)nc2cnc(Oc3cccc(NC(=O)c4ccc(OCCN5CCOCC5)cc4)c3)cc21
Assigned category: active
--
Compound: Nc1ccc(S(=O)(=O)Nc2ccnn2-c2ccccc2)cc1
Assigned category: inactive
--
Compound: COc1ccc(COc2cc3oc(=O)c4cc(C(C)O)ccc4c3cc2OC)cc1 (stereo not drawn)
Assigned category: inactive
--
Compound: Clc1cccc(Cl)c1NC1=NCCN1
Assigned category: inactive
--
Compound: CC(C)NCC(O)COc1ccc(COCCOC(C)C)cc1 (stereo not drawn)
Assigned category: inactive
--
Compound: Oc1cccc(-c2nc(N3CCOCC3)c3oc4ncccc4c3n2)c1
Assigned category: active
--
Compound: COc1ccccc1-c1cccc(-c2c(O)c3cc(C#N)c(Cl)cc3[nH]c2=O)c1
Assigned category: inactive
--
Compound: Cc1csc(NC(=O)c2sc3nc4c(c(C(F)(F)F)c3c2N)CCC4)n1
Assigned category: inactive
--
Compound: OC(CN1CCC(Cc2ccc(F)cc2)CC1)c1ccc(Cl)cc1 (stereo not drawn)
Assigned category: inactive
--
Compound: CN(C)C(=O)c1ccc(S(=O)(=O)c2ccc(NC(=O)[C@@](C)(O)C(F)(F)F)c(Cl)c2)cc1
Assigned category: inactive
--
Compound: N[C@@H]1CONC1=O
Assigned category: inactive
--
Compound: Cc1ccccc1C(C(=O)NC1CCCC1)N(C(=O)Cn1cnc2ccccc21)c1cccc(F)c1 (stereo not drawn)
Assigned category: inactive
--
Compound: COc1nc(-c2ccc3c(c2)OCO3)n(-c2ccc(NC(=O)CSc3ccccc3)cc2)n1
Assigned category: inactive
--
Compound: N#CC[C@H](C1CCCC1)n1cc(-c2ncnc3[nH]ccc23)cn1
Assigned category: active
--
Compound: CN(C)c1ccc(C2Nc3ccc4ccccc4c3C3=C2C(=O)CC(C)(C)C3)cc1Br (stereo not drawn)
Assigned category: inactive
--
Compound: O=NN(CCCl)C(=O)NCCCl
Assigned category: inactive
--
Compound: CCOc1cc(C=C2C(=O)N(c3ccccc3)N=C2C)cc(Cl)c1OCC(=O)OC
Assigned category: active
